Catalogue of log10 of EC50 values
# target_desc: Nuclear factor erythroid 2-related factor 2 (Homo sapiens)
# Sequence (Q16236 whole entry): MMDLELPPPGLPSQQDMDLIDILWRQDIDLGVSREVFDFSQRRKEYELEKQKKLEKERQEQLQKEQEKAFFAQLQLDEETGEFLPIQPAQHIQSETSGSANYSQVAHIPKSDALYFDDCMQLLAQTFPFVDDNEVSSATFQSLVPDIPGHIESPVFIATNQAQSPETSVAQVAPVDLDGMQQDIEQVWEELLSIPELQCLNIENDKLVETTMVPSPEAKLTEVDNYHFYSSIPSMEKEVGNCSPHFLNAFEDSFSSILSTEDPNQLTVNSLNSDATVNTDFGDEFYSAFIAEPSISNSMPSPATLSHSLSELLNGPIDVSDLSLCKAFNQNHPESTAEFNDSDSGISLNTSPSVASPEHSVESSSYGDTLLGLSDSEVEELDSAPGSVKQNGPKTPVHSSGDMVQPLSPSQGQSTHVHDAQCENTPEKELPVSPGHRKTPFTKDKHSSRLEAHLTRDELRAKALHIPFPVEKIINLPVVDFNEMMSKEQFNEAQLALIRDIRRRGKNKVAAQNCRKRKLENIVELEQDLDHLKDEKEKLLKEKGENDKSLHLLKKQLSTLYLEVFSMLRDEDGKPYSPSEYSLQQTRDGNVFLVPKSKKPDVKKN
# measurement_description: Activation of ED-tagged Nrf2 in human U2OS cells co-expressing Keap1 assessed as induction of NRF2 translocation to nucleus after 6 hrs by beta-galactosidase based chemiluminescent assay
# Assay type: cell-based
Units before log transform: nM; reported quantity: EC50; transform: log10.

The following compounds have reported results that may help.
# smiles_data, target_desc, metric, data_value
data = [
    ("COc1ccc(OS(=O)(=O)/C=C/c2ccccc2Cl)cc1", "Nuclear factor erythroid 2-related factor 2 (Homo sapiens)", "log10 of EC50", 2.37),
    ("COc1ccc(OS(=O)(=O)/C=C/c2ccc(Cl)cc2)cc1", "Nuclear factor erythroid 2-related factor 2 (Homo sapiens)", "log10 of EC50", 3.06),
]

Query: So what's the measured log10 of EC50 for this one? "COc1ccccc1OS(=O)(=O)/C=C/c1ccccc1Cl"
Reply: 1.88

Query: Field entry: "COc1cccc(OS(=O)(=O)/C=C/c2cccc(Cl)c2)c1"
Reply: 2.97

Query: Field entry: "COc1ccc(OS(=O)(=O)/C=C/c2cccc(Cl)c2)cc1"
Reply: 2.98

Query: Field entry: "COc1cccc(OS(=O)(=O)/C=C/c2ccc(Cl)cc2)c1"
Reply: 3.25

Query: Field entry: "COc1cccc(OS(=O)(=O)/C=C/c2ccccc2Cl)c1"
Reply: 2.22

Query: Field entry: "O=S(=O)(/C=C/c1ccccc1)Oc1ccccc1"
Reply: 3.02

* * *

# measurement_description: Cytotoxicity against mouse BV2 cells assessed as cell viability at 1 uM incubated for 6 hrs by CCK-8 assay relative to control
# Assay type: cell-based, BV-2
# conditions_used: read-out: Activity
metric: viability at 6 h, 1 µM (%)
Just the number in %, nothing appended.

Query: So what's the measured viability at 6 h, 1 µM for this one? "COc1ccccc1OS(=O)(=O)/C=C/c1ccccc1Cl"
Reply: 98

* * *

# measurement_description: Cytotoxicity against mouse BV2 cells assessed as cell viability at 3 uM incubated for 6 hrs by CCK-8 assay relative to control
# Type: cell-based, BV-2
# conditions_used: read-out: Activity
metric: viability at 6 h, 3 µM (%)
Just the number in %, nothing appended.

Query: So what's the measured viability at 6 h, 3 µM for this one? "COc1ccccc1OS(=O)(=O)/C=C/c1ccccc1Cl"
Reply: 97.6
